Attribution: patent US20240109881A1

Each record here notes measured LVL THP1 HTRF YMIN.
System tested: IRAK4 (Homo sapiens)
Construct: endogenous in cells; host or cells: THP-1 cells
Assay overview: LVL THP1 HTRF (THP1 Homogeneous Time Resolved Fluorescence)
Type: cell-based
Run parameters: THP1 cells, 18 h incubation with compound
Report as: number unit

Recorded LVL THP1 HTRF YMIN, per entry:
Compound | LVL THP1 HTRF YMIN
C[C@H](C#N)Nc1cc(-n2ncc3cc(C#N)cnc32)ncc1-n1cc([C@H]2CC[C@H](CCN3CCN(c4ccc(N5CCC(=O)NC5=O)nc4)CC3)CC2)nn1 [P-370] | 1.2%
C[C@H](C#N)Nc1cc(-n2ncc3cc(C#N)cnc32)ncc1-n1cc([C@H]2CC[C@H](CCN3CCN(c4cccc5c(N6CCC(=O)NC6=O)cncc45)CC3)CC2)nn1 [P-361] | 1.2%

Input line: // returns reported LVL THP1 HTRF YMIN for input C[C@H](C#N)Nc1cc(-n2ncc3cc(C#N)cnc32)ncc1-n1cc(C2CCC(CCN3C[C@@H](C)N(c4ccc([C@@]5(C)CCC(=O)NC5=O)cc4)C[C@@H]3C)CC2)nn1 (stereo partly drawn) [P-236]
Output line: 23.3%

----------
Each record here notes measured DC50.
System tested: IRAK4 (Homo sapiens, UniProt Q9NWZ3)
Construct: endogenous in cells; host or cells: THP-1 cells
Sequence (Q9NWZ3 whole entry): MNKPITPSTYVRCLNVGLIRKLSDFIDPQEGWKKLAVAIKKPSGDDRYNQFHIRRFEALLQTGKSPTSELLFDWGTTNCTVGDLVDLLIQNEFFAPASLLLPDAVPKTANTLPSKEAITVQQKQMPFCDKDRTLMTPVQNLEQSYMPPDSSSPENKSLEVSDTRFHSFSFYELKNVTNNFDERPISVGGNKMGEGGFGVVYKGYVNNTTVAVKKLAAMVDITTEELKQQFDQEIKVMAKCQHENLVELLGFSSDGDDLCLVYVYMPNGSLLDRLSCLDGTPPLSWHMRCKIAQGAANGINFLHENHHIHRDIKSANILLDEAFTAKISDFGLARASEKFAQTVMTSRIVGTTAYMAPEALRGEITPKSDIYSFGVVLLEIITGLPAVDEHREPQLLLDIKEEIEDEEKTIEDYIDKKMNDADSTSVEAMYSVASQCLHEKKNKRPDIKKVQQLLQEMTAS
Assay overview: LVL THP1 HTRF (THP1 Homogeneous Time Resolved Fluorescence)
Type: cell-based
Run parameters: THP1 cells, 18 h incubation with compound, read-out: LVL THP1 HTRF EC50
Return type: number; implicit unit nM.

Compound | Display unit | Recorded value
COc1cnc2c(cnn2-c2cc(N[C@H](C)C#N)c(-n3cc([C@H]4CC[C@H](CCN5CCN(c6ccc(C7CCC(=O)NC7=O)cc6)CC5)CC4)nn3)cn2)c1 (some centres unmarked) | nM | 14.3

Input line: // returns reported DC50 for input C[C@H](C#N)Nc1cc(-n2ncc3cc(C#N)c(N)nc32)ncc1-n1cc([C@H]2CC[C@H](CCN3[C@@H](C)CN(c4ccc([C@@]5(C)CCC(=O)NC5=O)cn4)C[C@@H]3C)CC2)nn1 (single isomer, unassigned) [P-252]
Output line: 5.4

Input line: // returns reported DC50 for input C[C@H](C#N)Nc1cc(-n2ncc3cc(C#N)c(N)nc32)ncc1-n1cc([C@H]2CC[C@H](CCN3CCN(c4ccc([C@@]5(C)CCC(=O)NC5=O)cn4)[C@@H](C)C3)CC2)nn1 (single isomer, unassigned) [P-258]
Output line: 6.9

Input line: // returns reported DC50 for input C[C@H](C#N)Nc1cc(Nc2ncc(Cl)cc2Cl)ncc1-n1cc([C@H]2CC[C@H](CCN3CCN(c4ccc(C5CCC(=O)NC5=O)cc4)CC3)CC2)nn1 (some centres unmarked)
Output line: 89.4

Input line: // returns reported DC50 for input "C[C@H](C#N)Nc1cc(N2CCc3cc(C#N)cnc32)ncc1-n1cc([C@H]2CC[C@H](CCN3CCN(c4ccc(N5CCC(=O)NC5=O)cc4)CC3)CC2)nn1"
Output line: 200

Input line: // returns reported DC50 for input C[C@H](C#N)Nc1cc(Nc2ncncc2F)ncc1-n1cc([C@H]2CC[C@H](CCN3CCN(c4ccc(C5CCC(=O)NC5=O)cc4)CC3)CC2)nn1 (some centres unmarked)
Output line: 31.3

Input line: // returns reported DC50 for input C[C@H](C#N)Nc1cc(-n2ncc3cc(C#N)cnc32)ncc1-n1cc([C@H]2CC[C@H](CCN3CCC(n4cc(NC5CCC(=O)NC5=O)cn4)CC3)CC2)nn1 (some centres unmarked)
Output line: 94.9
